Where these numbers come from: paper PMC10119292

target: Collagen type IV from human placenta (human) (UniProt P08572); assay: MST; RED-NHS-labeled collagen type IV constant at 25 nM, unlabeled partner varied (16 1:1 dilutions); 10 mM HEPES pH 7.2, 150 mM NaCl, 0.005% Tween-20, 15 µM BSA; 25 °C; 60% LED power, high MST power, MST-on time 1.5 s
observation_type: Kd (µM)

human TANGO1 MOTH domain with C-terminal helix, residues 21-151 (domain or fragment) PGQLDPSTGRRFSEHKLCADDECSMLMYRGEALEDFTGPDCRFVNFKKGDPVYVYYKLARGWPEVWAGSVGRTFGYFPKDLIQVVHEYTKEELQVPTDETDFVCFDGGRDDFHNYNVEELLGFLELYNSAA    3.3
human TALI MOTH domain, residues 23-123 (domain or fragment) TKLLADLKKCGDLECEALINRVSAMRDYRGPDCRYLNFTKGEEISVYVKLAGEREDLWAGSKGKEFGYFPRDAVQIEEVFISEEIQMSTKESDFLCLLGVS    11.4
human Otoraplin, residues 18-128 (domain or fragment) VHGIFMDRLASKKLCADDECVYTISLASAQEDYNAPDCRFINVKKGQQIYVYSKLVKENGAGEFWAGSVYGDGQDEMGVVGYFPRNLVKEQRVYQEATKEVPTTDIDFFCE    9.9
Drosophila melanogaster TANGO1 cargo-recognition domain, residues 30-139 (domain or fragment) TLTWAATLSDKRLCADPKCEQIISMGIAKITYAIGGEGLISFKINSPIRVLSKSAGSNMQLWGVDINGRRGYANKDFIMEKKILVRDKDLLYEVPVVGPGSPVQSVETPV    6.9
